Test: Clearance in CD1 mouse at 0.2 mg/kg, iv measured for 14 days
Assay type: ADME, organism-based
Conditions: in vivo
recorded.metric: clearance (mL/min/kg)

{"chemical.string": "O[C@H]1CNCCC[C@@H]1n1c2ccc(C(F)(F)F)cc2c2cc(C(F)(F)F)ccc21", "reading.unit": "mL/min/kg", "measured.result": 2.6}

* * *

Test: Apparent permeability of the compound in human Caco2 cells at 20 uM after 4 hrs in presence of human plasma by LC-MS analysis
Format: ADME, cell-based
Details: Caco-2
recorded.metric: Papp at 4 h, 20 µM

{"chemical.string": "O[C@H]1CNCCC[C@@H]1n1c2ccc(C(F)(F)F)cc2c2cc(C(F)(F)F)ccc21", "recorded.metric": "Papp at 4 h, 20 µM", "measured.result": "120 ×10⁻⁶ cm/s"}

* * *

Experiment: Oral bioavailability in CD1 mouse at 0.5 mg/kg measured for 14 days
Assay type: ADME, organism-based
Conditions: in vivo

{"chemical.string": "O[C@H]1CNCCC[C@@H]1n1c2ccc(C(F)(F)F)cc2c2cc(C(F)(F)F)ccc21", "reading.unit": "%", "bioavailability": 97}

* * *

Test: Ratio of drug uptake in mouse blood to plasma
Format: ADME
Conditions: blood and plasma

{"chemical.string": "O[C@H]1CNCCC[C@@H]1n1c2ccc(C(F)(F)F)cc2c2cc(C(F)(F)F)ccc21", "blood plasma ratio": 1.6}

* * *

Experiment: Octanol-phosphate buffer partition co-efficient, log D of the compound at pH 7.4 after 1 hr by HPLC analysis
Assay type: physicochemical
recorded.metric: logD at 1 h

{"chemical.string": "O[C@H]1CNCCC[C@@H]1n1c2ccc(C(F)(F)F)cc2c2cc(C(F)(F)F)ccc21", "measured.result": 4.1}

* * *

Assay: Fraction unbound in rat plasma at 1000 ng/mL by LC-MS analysis
Format: ADME, cell-free
recorded.metric: fraction unbound at 1000 ng/mL

{"chemical.string": "O[C@H]1CNCCC[C@@H]1n1c2ccc(C(F)(F)F)cc2c2cc(C(F)(F)F)ccc21", "measured.result": 0.025}

* * *

Test: Intrinsic clearance in dog microsomes assessed per mg protein
Format: ADME, Canis lupus familiaris, Microsome
recorded.metric: microsomal CLint

{"chemical.string": "O[C@H]1CNCCC[C@@H]1n1c2ccc(C(F)(F)F)cc2c2cc(C(F)(F)F)ccc21", "measured.result": "< 10 µL/min/mg"}

* * *

Assay: Clearance in dog at 0.2 mg/kg, iv measured for 14 days
Assay type: ADME, organism-based, Canis lupus familiaris
Conditions: in vivo

{"chemical.string": "O[C@H]1CNCCC[C@@H]1n1c2ccc(C(F)(F)F)cc2c2cc(C(F)(F)F)ccc21", "clearance (mL/min/kg)": 2.98}

* * *

Experiment: Tmax in CD1 mouse at 0.5 mg/kg, po measured for 14 days
Assay type: ADME, organism-based
Details: in vivo

{"chemical.string": "O[C@H]1CNCCC[C@@H]1n1c2ccc(C(F)(F)F)cc2c2cc(C(F)(F)F)ccc21", "reading.unit": "h", "Tmax": 6}

* * *

Assay: Oral bioavailability in dog at 0.5 mg/kg measured for 14 days
Assay type: ADME, organism-based, Canis lupus familiaris
Settings: in vivo
recorded.metric: bioavailability (%)

{"chemical.string": "O[C@H]1CNCCC[C@@H]1n1c2ccc(C(F)(F)F)cc2c2cc(C(F)(F)F)ccc21", "recorded.metric": "bioavailability", "measured.result": 100}
